Target Under Test: Cysteinyl leukotriene receptor 1 (Cavia porcellus)
Test Summary: Negative logarithm of molar dissociation constant on guinea pig trachea at Cysteinyl leukotriene D4 receptor, when LTE4 is used as agonist
Type: functional
Observed Property: pKB

molecule=COc1cc(C(=O)NS(=O)(=O)c2ccccc2)ccc1CN1CCc2ccc(NC(=O)CC3CCCC3)cc21 observed_property=pKB value_observed=9.11
molecule=COc1cc(C(=O)NS(=O)(=O)c2ccccc2)ccc1CN1CCOc2ccc(NC(=O)CC3CCCC3)cc21 observed_property=pKB value_observed=9.1
molecule=COc1cc(C(=O)NS(=O)(=O)c2ccccc2)ccc1CN1CCOc2ccc(NC(=O)OC3CCCC3)cc21 observed_property=pKB value_observed=9.02
molecule=COc1cc(C(=O)NS(=O)(=O)c2ccccc2)ccc1Cn1nnc2ccc(NC(=O)CC3CCCC3)cc21 observed_property=pKB value_observed=9.86
molecule=COc1cc(C(=O)NS(=O)(=O)c2ccccc2)ccc1Cn1cnc2ccc(NC(=O)OC3CCCC3)cc21 observed_property=pKB value_observed=9.2
molecule=COc1cc(C(=O)NS(=O)(=O)c2ccccc2C)ccc1Cc1csc2ccc(NC(=O)CC3CCCC3)cc12 observed_property=pKB value_observed=9.25
molecule=CNc1ccc(NC(=O)OC2CCCC2)cc1C(=O)Cc1ccc(C(=O)NS(=O)(=O)c2ccccc2C)cc1OC observed_property=pKB value_observed=9.07
molecule=COc1cc(C(=O)NS(=O)(=O)c2ccccc2Cl)ccc1Cc1csc2ccc(NC(=O)CC3CCCC3)cc12 observed_property=pKB value_observed=9.6
molecule=COc1cc(C(=O)NS(=O)(=O)c2ccccc2)ccc1COc1cccc(NC(=O)OC2CCCC2)c1 observed_property=pKB value_observed=7.14
molecule=COc1cc(C(=O)NS(=O)(=O)c2ccccc2)ccc1Cn1cnc2ccc(NC(=O)CC3CCCC3)cc21 observed_property=pKB value_observed=9.22
molecule=COc1cc(C(=O)NS(=O)(=O)c2ccccc2)ccc1Cc1csc2ccc(NC(=O)OC3CCCC3)cc12 observed_property=pKB value_observed=9.31
